These records show GI50 for MDA-MB-435.
quantity_name: GI50

>>> readout_value("COc1ccc(-c2c[nH]c(=S)n2-c2ccc(OC)cc2)cc1")
"> 50000 nM"
>>> readout_value("Cc1cc[c-]cc1.Fc1c[c-]c(-c2ccccn2)c(F)c1.[Pt+2].c1ccc(P(C[PH+](c2ccccc2)c2ccccc2)c2ccccc2)cc1")
"2180 nM"
>>> readout_value("CCC(C)(C)c1ccc(OCCCCCCN2CCNCC2)cc1")
"1540 nM"
>>> readout_value("CC(C)S(=O)(=O)c1ccccc1Nc1nc(Nc2cccc(NC(=O)CN)c2)ncc1Cl")
"553 nM"
>>> readout_value("COCCOc1cnc2ccn([C@H](C)c3nnc4c(F)cc(-c5cnn(C)c5)cn34)c(=O)c2c1")
"> 100000 nM"
>>> readout_value("O=C(CSC(c1ccccc1)c1ccccc1)N/N=C/c1ccc(Cl)cc1Cl")
"29600 nM"

---

Tested on: MALME-3M melanoma
method_description: NCI tumour cell line growth inhibition, 48 h; in the data active = GI50 below about 0.43 µM; inactive = the rest
Classes used: YES = active, NO = inactive

>>> label("NC(N)=NCCCCCNc1noc(Cc2c[nH]c3cc(Br)ccc23)n1")
"NO"
>>> label("Cc1cc(I)cc(CN(C)CCCN2CCOCC2)c1O")
"NO"
>>> label("C[C@]12CCc3nc(Nc4ccccc4)sc3C1=CC[C@@H]1[C@@H]2CC[C@]2(C)/C(=N/NC(N)=S)CC[C@@H]12")
"NO"
>>> label("O=C(/C=C/c1cc(CN2CCOCC2)c(O)c2ncccc12)c1cc(CN2CCOCC2)c(O)c2ncccc12")
"YES"
>>> label("O=C(COc1ccc(/C=C2\\CSc3ccccc3C2=O)cc1)Nc1nccs1")
"NO"
>>> label("COc1ccc2c(O)cc3c(c2c1)[C@H](CCl)CN3C(=O)c1cc2cc(NC(=O)CCN3CCOCC3)ccc2[se]1")
"YES"
>>> label("COCCOc1cnc2ccn([C@H](C)c3nnc4c(F)cc(-c5cnn(C)c5)cn34)c(=O)c2c1")
"NO"

---

System: HT29 colon
method_description: NCI tumour cell line growth inhibition, 48 h
# TGI listing for each entry below
quantity_name: TGI

>>> readout_value("COC(=O)CCC(=O)CC1CC(=O)C2CCCN12 (configuration not stated)")
"> 100 µM"
>>> readout_value("O=C(NCCCCCCNCc1cccc2ccccc12)Nc1cccc2ccccc12")
"> 100 µM"
>>> readout_value("Oc1cn(-c2ccc(Cl)cc2)nc1-c1n[nH]c(=S)n1C1CCCCC1")
"> 100 µM"
>>> readout_value("Cc1cc(C)c(C2[C@H]3C(=O)N(c4ccc(Cc5ccc(N6C(=O)[C@@H]7ON(c8ccccc8)C(c8c(C)cc(C)cc8C)[C@@H]7C6=O)cc5)cc4)C(=O)[C@H]3ON2c2ccccc2)c(C)c1 (some centres not stated)")
"> 100 µM"
>>> readout_value("O=[N+]([O-])c1ccc2c(c1)C(c1ccccc1Cl)=Nc1cn[nH]c1N2")
"> 25 µM"
>>> readout_value("CC(=O)O[C@H]1CC[C@@]2(C)C(=CC[C@H]3[C@@H]4C[C@H](N5CCCC5)[C@H](OC(C)=O)[C@@]4(C)CC[C@@H]32)C1")
"69.4 µM"
>>> readout_value("CCC(C#N)NC(=O)NC(C#N)CC (configuration not stated)")
"> 100 µM"
>>> readout_value("CN(C)C(=S)/N=c1\\ss/c(=N\\C(=S)N(C)C)n1-c1ccc(Cl)c(Cl)c1")
"> 100 µM"
>>> readout_value("C=C1C(=O)CC2C(=O)C(C)(O)CC/C=C(\\C)C(=O)CC12 (configuration not stated)")
"> 64.9 µM"
>>> readout_value("Cc1cc(I)cc(CN(C)CCCN2CCOCC2)c1O")
"33.6 µM"
>>> readout_value("Cc1cc(NS(=O)(=O)c2ccc(Nc3c4ccccc4nc4c(C(=O)NCCN(C)C)cccc34)cc2)no1")
"> 100 µM"
>>> readout_value("NC(CS/C(Cl)=C/Cl)C(=O)O (configuration not stated)")
"> 100 µM"
>>> readout_value("CCc1ccccc1NC(=O)c1sc2nc3c(cc2c1N)C(=O)CCC3")
"29.5 µM"
>>> readout_value("CCOC(=O)c1ccc(N2C(=S)N(C(=O)c3ccccc3)C(=Nc3ccccc3)C2=Nc2ccccc2)cc1")
"> 100 µM"
>>> readout_value("COc1cc2ncn(-c3cc(OCCc4ccccc4)c(C(N)=O)s3)c2cc1OC")
"> 25 µM"
>>> readout_value("COc1cccc(-n2c3nc(=O)n(C)c(=O)c-3nc3ccccc32)c1")
"40.8 µM"
>>> readout_value("NCCSc1nc2ccccc2c(=O)n1-c1ccccc1")
"> 100 µM"
>>> readout_value("Cc1c(C2=C(Br)C(=O)N(C)C2=O)c(=O)n(C)c(=O)n1C")
"42.2 µM"
>>> readout_value("Cc1cn(C(Cc2ccccc2)OCCO)c(=O)[nH]c1=O (configuration not stated)")
"> 100 µM"
>>> readout_value("C=CCCC(=O)CC(O)(C(F)(F)F)C(F)(F)F")
"> 100 µM"
>>> readout_value("O=C(Nc1ccc(-c2ccccc2)cc1)C1CCN(S(=O)(=O)c2ccccc2Cl)CC1")
"> 100 µM"
>>> readout_value("CC(=O)C1=C(C)NC2C=CC=CN12 (configuration not stated)")
"> 100 µM"
>>> readout_value("COc1ccc2ncn(-c3cc(O[C@H](C)c4ccccc4Cl)c(C(N)=O)s3)c2c1")
"9.13 µM"
>>> readout_value("COC(=O)[C@@H]1CCCN1CCN1CCC[C@H]1C(=O)OC")
"> 100 µM"
>>> readout_value("CC1=NN2C(=N)/C(=C/c3ccco3)C(=O)N=C2S1")
"> 100 µM"
>>> readout_value("Nc1ccc2[nH]c3c(-c4ccccc4)nccc3c2c1")
"> 100 µM"
>>> readout_value("CCOC(=O)/C=C(\\C(=O)OCC)n1cc(C)c(=O)n(Cc2cnnn2CCCCOC(C)=O)c1=O")
"21.3 µM"
>>> readout_value("O=c1[nH]nc(Cc2ccc([N+](=O)[O-])cc2)n1CCO")
"> 100 µM"
>>> readout_value("Cn1cc(C2=C(c3cn(CCCCCN)c4ccccc34)C(=O)NC2=O)c2ccccc21")
"> 22.8 µM"
>>> readout_value("COc1cc2cccc(N=Cc3cccc(OC)c3OC(C)C)c2cc1OC")
"50.2 µM"
>>> readout_value("CCOc1ccc(-c2nc(-c3oc4ccccc4c(=O)c3OC(C)=O)cs2)cc1")
"> 10 µM"
>>> readout_value("O=C(Cc1ccccc1)NN1C(=O)/C(=C\\c2cccc(O)c2)SC1=Nc1ccccc1")
"> 100 µM"
>>> readout_value("O=C1c2ccc3c4ccccc4n(Cc4ccccc4)c3c2C(=O)N1c1ccccc1")
"39.2 µM"
>>> readout_value("CN(NC(=O)c1cccs1)C1=NCCCN1")
"> 100 µM"
>>> readout_value("O=C1OC2(OC2c2ccccc2)c2ccccc21 (configuration not stated)")
"> 100 µM"
>>> readout_value("CN(C)c1ccc(C2SCC(=O)N2NS(=O)(=O)c2cccc(C(=O)O)c2)cc1 (configuration not stated)")
"> 100 µM"
>>> readout_value("COc1ccc(C2c3cc(OC)c(OC)cc3C(Cc3ccc([N+](=O)[O-])cc3)C2c2ccc([N+](=O)[O-])cc2)cc1OC (configuration not stated)")
"> 100 µM"
>>> readout_value("NC1=NS(=O)(=O)Nc2nc(-c3ccc([N+](=O)[O-])cc3)[nH]c21")
"> 100 µM"
>>> readout_value("COC(=O)C1=CC(=O)OC1(OO)c1ccccc1 (configuration not stated)")
"> 100 µM"
>>> readout_value("COCCOc1cnc2ccn([C@H](C)c3nnc4c(F)cc(-c5cnn(C)c5)cn34)c(=O)c2c1")
"> 100 µM"
>>> readout_value("O=c1nc2c(c(-c3ccccc3Cl)[nH]1)COC/C2=C\\c1ccccc1Cl")
"> 100 µM"
>>> readout_value("COC(=O)OCC1OC(N2C(=O)NC(=O)C(Br)C2N=[N+]=[N-])CC1OC(=O)OC (configuration not stated)")
"> 100 µM"

---

Test system: U251 CNS
method_description: NCI tumour cell line growth inhibition, 48 h
quantity_name: TGI (µM)

>>> readout_value("COC(=O)/C(C=O)=C/Sc1ccccc1")
42.2
>>> readout_value("C=C1C(=O)O[C@H]2[C@H]1CC/C(COC(=O)c1ccc(Cl)nc1)=C\\CC[C@@]1(C)O[C@@H]21")
15.9
>>> readout_value("COc1cccc(-n2c3nc(=O)n(C)c(=O)c-3nc3ccccc32)c1")
38.2
>>> readout_value("NP(=O)(OCC1=CC(=O)c2ccccc2C1=O)N(CCBr)CCBr (stereo unspecified)")
28.7
>>> readout_value("O=C1c2ccc3c4ccccc4n(Cc4ccccc4)c3c2C(=O)N1c1ccccc1")
29.3
